Cited source: patent EP3375430A1

amount of fragrance ingredient retained on blotter (percentage of the initial amount) listing for selected compounds.
protocol.summary: Amount of fragrance ingredients retained on paper blotter after evaporation (ethanol extraction, GC-MS)
Format: physicochemical
measurement.context: Table 3; fragrance TAK in C1; 15 min; 32°C
assay.metric: amount of fragrance ingredient retained on blotter (percentage of the initial amount) (%)

• CCCCCCOC(C)=O [Hexyl acetate, Hexyl Acetate] = 41
• CC(=O)OC1CCCCC1C(C)(C)C (centres unmarked) [Verdox™, (2-tert-butylcyclohexyl) acetate] = 80
• C=CC(C)(O)CCC=C(C)C (centres unmarked) = 80
• O=C1CCCCCCCCCCCC(=O)OCCO1 [Ethylene Brassylate] = 81
• CC(C=O)Cc1ccc(C(C)(C)C)cc1 (centres unmarked) = 78
• C=C(C)[C@H]1CC=C(C)CC1 = 18
• CC/C=C\CCOC(=O)c1ccccc1O [Cis 3-hexenyl salicylate, Cis-3-hexenyl salicylate] = 76
• C=CC(C)(CCC=C(C)C)OC(C)=O (centres unmarked) [Linalyl acetate] = 79

---

protocol.summary: Amount of fragrance ingredients retained on paper blotter after evaporation (ethanol extraction, GC-MS)
Format: physicochemical
measurement.context: Table 5; fragrance TAK in C3; 480 min; 32°C
assay.metric: amount of fragrance ingredient retained on blotter (percentage of the initial amount) (%)

* CC(C=O)Cc1ccc(C(C)(C)C)cc1 (centres unmarked) [Lilial™, 3-(4-tert-Butylphenyl)-2-methylpropanal] | 60
* C=CC(C)(O)CCC=C(C)C (centres unmarked) [Linalool] | 3
* C=CC(C)(CCC=C(C)C)OC(C)=O (centres unmarked) [Linalyl acetate] | 8
* CC/C=C\CCOC(=O)c1ccccc1O [Cis 3-hexenyl salicylate, Cis-3-hexenyl salicylate] | 61
* CCCCCCOC(C)=O [Hexyl acetate, Hexyl Acetate] | 2
* O=C1CCCCCCCCCCCC(=O)OCCO1 [Ethylene Brassylate] | 82
* CC(=O)OC1CCCCC1C(C)(C)C (centres unmarked) [Verdox™, (2-tert-butylcyclohexyl) acetate] | 3

---

protocol.summary: Amount of fragrance ingredients retained on paper blotter after evaporation (ethanol extraction, GC-MS)
Type: physicochemical
measurement.context: Table 5; fragrance TAK in C3; 240 min; 32°C
Please enter MET where amount of fragrance ingredient retained on blotter (percentage of the initial amount) is greater than or equal to 80%, and NOT MET where it is lower.

• C=CC(C)(O)CCC=C(C)C (centres unmarked) = NOT MET
• C=CC(C)(CCC=C(C)C)OC(C)=O (centres unmarked) [Linalyl acetate] = NOT MET
• CCCCCCOC(C)=O [Hexyl acetate, Hexyl Acetate] = NOT MET
• C=C(C)[C@H]1CC=C(C)CC1 = NOT MET
• CC(C=O)Cc1ccc(C(C)(C)C)cc1 (centres unmarked) = MET
• O=C1CCCCCCCCCCCC(=O)OCCO1 [Ethylene Brassylate] = MET
• CC(=O)OC1CCCCC1C(C)(C)C (centres unmarked) [Verdox™, (2-tert-butylcyclohexyl) acetate] = NOT MET

---

protocol.summary: Amount of fragrance ingredients retained on paper blotter after evaporation (ethanol extraction, GC-MS)
Format: physicochemical
measurement.context: Table 4; fragrance TAK in C2; 15 min; 32°C
amount of fragrance ingredient retained on blotter (percentage of the initial amount) listing for selected compounds.
assay.metric: amount of fragrance ingredient retained on blotter (percentage of the initial amount) (%)

- O=C1CCCCCCCCCCCC(=O)OCCO1 [Ethylene Brassylate]: 97
- C=C(C)[C@H]1CC=C(C)CC1 [Limonene]: 29
- CCCCCCOC(C)=O [Hexyl acetate, Hexyl Acetate]: 54
- C=CC(C)(O)CCC=C(C)C (centres unmarked) [Linalool]: 92
- CC(=O)OC1CCCCC1C(C)(C)C (centres unmarked) [Verdox™, (2-tert-butylcyclohexyl) acetate]: 92
- CC(C=O)Cc1ccc(C(C)(C)C)cc1 (centres unmarked) [Lilial™, 3-(4-tert-Butylphenyl)-2-methylpropanal]: 98
- C=CC(C)(CCC=C(C)C)OC(C)=O (centres unmarked) [Linalyl acetate]: 92
- CC/C=C\CCOC(=O)c1ccccc1O [Cis 3-hexenyl salicylate, Cis-3-hexenyl salicylate]: 99

---

protocol.summary: Amount of fragrance ingredients retained on paper blotter after evaporation (ethanol extraction, GC-MS)
Format: physicochemical
measurement.context: Table 3; fragrance TAK in EdT1; 60 min; 32°C
Please enter Yes where amount of fragrance ingredient retained on blotter (percentage of the initial amount) is greater than or equal to 30%, and No where it is lower.

• CC/C=C\CCOC(=O)c1ccccc1O [Cis 3-hexenyl salicylate, Cis-3-hexenyl salicylate] = Yes
• CCCCCCOC(C)=O [Hexyl acetate, Hexyl Acetate] = No
• C=CC(C)(CCC=C(C)C)OC(C)=O (centres unmarked) [Linalyl acetate] = No
• C=C(C)[C@H]1CC=C(C)CC1 [Limonene] = No
• CC(C=O)Cc1ccc(C(C)(C)C)cc1 (centres unmarked) [Lilial™, 3-(4-tert-Butylphenyl)-2-methylpropanal] = Yes
• C=CC(C)(O)CCC=C(C)C (centres unmarked) [Linalool] = No
• O=C1CCCCCCCCCCCC(=O)OCCO1 [Ethylene Brassylate] = Yes
• CC(=O)OC1CCCCC1C(C)(C)C (centres unmarked) [Verdox™, (2-tert-butylcyclohexyl) acetate] = No

---

protocol.summary: Amount of fragrance ingredients retained on paper blotter after evaporation (ethanol extraction, GC-MS)
Assay type: physicochemical
measurement.context: Table 6; fragrance TAK in EdT1 or C4; T0, set at 100% (normalisation)
amount of fragrance ingredient retained on blotter (percentage of the initial amount) listing for selected molecules.
assay.metric: amount of fragrance ingredient retained on blotter (percentage of the initial amount) (%)

* C=C(C)[C@H]1CC=C(C)CC1 | 100
* CCCCCCOC(C)=O [Hexyl acetate, Hexyl Acetate] | 100
* CC(C=O)Cc1ccc(C(C)(C)C)cc1 (centres unmarked) | 100
* C=CC(C)(CCC=C(C)C)OC(C)=O (centres unmarked) [Linalyl acetate] | 100
* CC(=O)OC1CCCCC1C(C)(C)C (centres unmarked) [Verdox™, (2-tert-butylcyclohexyl) acetate] | 100
* C=CC(C)(O)CCC=C(C)C (centres unmarked) | 100
* O=C1CCCCCCCCCCCC(=O)OCCO1 [Ethylene Brassylate] | 100
* CC/C=C\CCOC(=O)c1ccccc1O [Cis 3-hexenyl salicylate, Cis-3-hexenyl salicylate] | 100

---

protocol.summary: Amount of fragrance ingredients retained on paper blotter after evaporation (ethanol extraction, GC-MS)
Assay type: physicochemical
measurement.context: Table 6; fragrance TAK in EdT1; 120 min; 32°C
assay.metric: amount of fragrance ingredient retained on blotter (percentage of the initial amount) (%)

- CC(C=O)Cc1ccc(C(C)(C)C)cc1 (centres unmarked): 75
- C=CC(C)(O)CCC=C(C)C (centres unmarked): 1
- O=C1CCCCCCCCCCCC(=O)OCCO1 [Ethylene Brassylate]: 90
- CCCCCCOC(C)=O [Hexyl acetate, Hexyl Acetate]: 2
- CC/C=C\CCOC(=O)c1ccccc1O [Cis 3-hexenyl salicylate, Cis-3-hexenyl salicylate]: 85

---

protocol.summary: Amount of fragrance ingredients retained on paper blotter after evaporation (ethanol extraction, GC-MS)
Format: physicochemical
measurement.context: Table 5; fragrance TAK in C3; 1440 min; 32°C
assay.metric: amount of fragrance ingredient retained on blotter (percentage of the initial amount)

- CC(C=O)Cc1ccc(C(C)(C)C)cc1 (centres unmarked) [Lilial™, 3-(4-tert-Butylphenyl)-2-methylpropanal]: 45%
- CC(=O)OC1CCCCC1C(C)(C)C (centres unmarked) [Verdox™, (2-tert-butylcyclohexyl) acetate]: <1%
- C=C(C)[C@H]1CC=C(C)CC1 [Limonene]: <1%
- C=CC(C)(O)CCC=C(C)C (centres unmarked) [Linalool]: 1%
- CC/C=C\CCOC(=O)c1ccccc1O [Cis 3-hexenyl salicylate, Cis-3-hexenyl salicylate]: 50%

---

protocol.summary: Amount of fragrance ingredients retained on paper blotter after evaporation (ethanol extraction, GC-MS)
Type: physicochemical
measurement.context: Table 9; fragrance COM1 in C5; T0 +1440 min
assay.metric: amount of fragrance ingredient retained on blotter (percentage of the initial amount) (%)

- CC1(C)CCC[C@]2(C)[C@H]3CCO[C@]3(C)CC[C@@H]12: 40.11
- CC/C=C(\C)C(O)CCCCC (centres unmarked) [Undecavertol™, (E)-4-methyldec-3-en-5-ol]: 2.62
- CC(C)(C)c1ccc(CCC=O)cc1: 28.82

---

protocol.summary: Amount of fragrance ingredients retained on paper blotter after evaporation (ethanol extraction, GC-MS)
Type: physicochemical
measurement.context: Table 4; fragrance TAK in EdT1; 15 min; 32°C
assay.metric: amount of fragrance ingredient retained on blotter (percentage of the initial amount) (%)

• O=C1CCCCCCCCCCCC(=O)OCCO1 [Ethylene Brassylate] = 87
• CC/C=C\CCOC(=O)c1ccccc1O [Cis 3-hexenyl salicylate, Cis-3-hexenyl salicylate] = 84
• CC(=O)OC1CCCCC1C(C)(C)C (centres unmarked) [Verdox™, (2-tert-butylcyclohexyl) acetate] = 74
• CCCCCCOC(C)=O [Hexyl acetate, Hexyl Acetate] = 15
• C=CC(C)(O)CCC=C(C)C (centres unmarked) = 58
• C=CC(C)(CCC=C(C)C)OC(C)=O (centres unmarked) [Linalyl acetate] = 72
• CC(C=O)Cc1ccc(C(C)(C)C)cc1 (centres unmarked) = 87
• C=C(C)[C@H]1CC=C(C)CC1 = 2
